Reference source: ChEMBL document CHEMBL5331098

Target: Beta-glucuronidase (Escherichia coli (strain K12)) (UniProt P05804)
Sequence (P05804 whole entry, looked up): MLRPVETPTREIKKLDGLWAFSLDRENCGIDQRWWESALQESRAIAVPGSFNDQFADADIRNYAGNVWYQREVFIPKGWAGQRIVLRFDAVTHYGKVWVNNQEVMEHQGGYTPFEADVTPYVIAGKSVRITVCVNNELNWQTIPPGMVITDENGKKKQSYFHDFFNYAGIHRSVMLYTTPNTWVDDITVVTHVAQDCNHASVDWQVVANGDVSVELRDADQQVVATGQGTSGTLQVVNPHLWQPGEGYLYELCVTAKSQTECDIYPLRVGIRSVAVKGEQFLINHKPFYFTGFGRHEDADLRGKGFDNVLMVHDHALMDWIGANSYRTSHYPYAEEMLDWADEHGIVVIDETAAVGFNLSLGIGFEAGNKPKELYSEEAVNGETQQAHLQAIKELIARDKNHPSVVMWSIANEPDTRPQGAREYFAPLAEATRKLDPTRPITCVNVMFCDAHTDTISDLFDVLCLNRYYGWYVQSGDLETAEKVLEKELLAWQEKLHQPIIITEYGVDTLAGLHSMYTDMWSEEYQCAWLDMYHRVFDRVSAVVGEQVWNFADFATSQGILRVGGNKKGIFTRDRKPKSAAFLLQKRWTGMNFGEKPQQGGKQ
Assay: Inhibition of Escherichia coli beta-glucuronidase assessed as reduction of p-nitrophenol release using p-nitrophenyl-glycoside as substrate at 1000 uM by spectrophotometric analysis relative to control
Listed below: inhibition values for each entry.
value-kind: inhibition (%)

INSERT INTO results (record_smiles, units_text, result) VALUES
  ('OC[C@@H]1N[C@@H]([C@H](O)CCCCCCc2ccc(F)cc2)[C@H](O)[C@H]1O', '%', 14.1),
  ('CC(C)(C)c1ccc(CCCCCC[C@@H](O)[C@@H]2N[C@@H](CO)[C@H](O)[C@H]2O)cc1', '%', 23.5),
  ('Cc1ccc(CCCCCC[C@H](O)[C@@H]2N[C@@H](CO)[C@H](O)[C@H]2O)cc1', '%', 8.9),
  ('Cc1ccc(CCCCCC[C@@H](O)[C@@H]2N[C@@H](CO)[C@H](O)[C@H]2O)cc1', '%', 24.5),
  ('CC(C)(C)c1ccc(CCCCCC[C@H](O)[C@@H]2N[C@@H](CO)[C@H](O)[C@H]2O)cc1', '%', 15.5),
  ('OC[C@@H]1N[C@@H]([C@@H](O)CCCCCCc2ccc(F)cc2)[C@H](O)[C@H]1O', '%', 6.2),
  ('OC[C@@H]1N[C@@H]([C@@H](O)CCCCCCc2ccc(Cl)cc2)[C@H](O)[C@H]1O', '%', 6.8),
  ('OC[C@@H]1N[C@@H]([C@H](O)CCCCCCc2ccc(Cl)cc2)[C@H](O)[C@H]1O', '%', 4.8);
